test: Stability test: storage at 50° C. in tightly sealed glass vial, HPLC purity; type: physicochemical; settings: after 20 days at 50° C., sealed glass vial

compound: COc1ccc(C(OCC23COC(C(n4cc(C)c(NC(=O)c5ccccc5)nc4=O)O2)C3OP(OCCC#N)N(C(C)C)C(C)C)(c2ccccc2)c2ccc(OC)cc2)cc1 (stereo not shown) [Example 1]
HPLC purity / %: 98.1

compound: COc1ccc(C(OCC23COC(C(n4cc(C)c(NC(=O)c5ccccc5)nc4=O)O2)C3OP(OCCC#N)N(C(C)C)C(C)C)(c2ccccc2)c2ccc(OC)cc2)cc1 (stereo not shown) [Example 3]
HPLC purity / %: 98.1

compound: COc1ccc(C(OCC23COC(C(n4cc(C)c(NC(=O)c5ccccc5)nc4=O)O2)C3OP(OCCC#N)N(C(C)C)C(C)C)(c2ccccc2)c2ccc(OC)cc2)cc1 (stereo not shown) [Control, reference compound]
HPLC purity / %: 92.1

compound: COc1ccc(C(OCC23COC(C(n4cc(C)c(NC(=O)c5ccccc5)nc4=O)O2)C3OP(OCCC#N)N(C(C)C)C(C)C)(c2ccccc2)c2ccc(OC)cc2)cc1 (stereo not shown) [Example 2]
HPLC purity / %: 98.3
